Ref: paper PMC8268887

Assay: Hydrophobicity by retention in analytical RP-HPLC (% MeCN at peak elution)
Type: physicochemical
Conditions: Phenomenex Luna Omega Polar C18 column; gradient 0→60% B during 15 min
# % MeCN at Elution, Luna Omega per record follows
Give the value, in units of % MeCN, as a plain number.

Illustrative cases are given below, each with its answer.
{"columns": ["COMPOUND", "% MeCN at Elution, Luna Omega (% MeCN)"],
 "data": [
  ["NCCCC[C@H](NC(=O)CCN(Cc1ccc(F)cc1)C(=O)[C@H](CCCCN)NC(=O)CCN(Cc1ccc(F)cc1)C(=O)[C@H](CCCCN)NC(=O)COCCN)C(=O)N(CCC(=O)NCCOCC(=O)N[C@@H](CCCCN)C(=O)N(CCC(=O)N[C@@H](CCCCN)C(=O)N(CCC(=O)N[C@@H](CCCCN)C(=O)N(CCC(=O)NCCOCC(N)=O)Cc1ccc(F)cc1)Cc1ccc(F)cc1)Cc1ccc(F)cc1)Cc1ccc(F)cc1 [Compound 11, H-sPEG1-[X]3-sPEG1-[X]3-sPEG1-NH2]", 41.4],
  ["NCCCC[C@H](NC(=O)CCN(Cc1ccc(F)cc1)C(=O)[C@H](CCCCN)NC(=O)CCN(Cc1ccc(F)cc1)C(=O)[C@H](CCCCN)NC(=O)COCCNC(=O)CCN(Cc1ccc(F)cc1)C(=O)[C@H](CCCCN)NC(=O)CCN(Cc1ccc(F)cc1)C(=O)[C@H](CCCCN)NC(=O)CCN(Cc1ccc(F)cc1)C(=O)[C@@H](N)CCCCN)C(=O)N(CCC(N)=O)Cc1ccc(F)cc1 [Compound 6, H-[X]3-sPEG1-[X]3-NH2]", 41.6]
]}

Next:
Q) Recorded % MeCN at Elution, Luna Omega of NCCCC[C@H](NC(=O)CCN(Cc1ccc(F)cc1)C(=O)[C@H](CCCCN)NC(=O)CCOCCOCCOCCOCCNC(=O)CCN(Cc1ccc(F)cc1)C(=O)[C@H](CCCCN)NC(=O)CCN(Cc1ccc(F)cc1)C(=O)[C@H](CCCCN)NC(=O)CCOCCOCCOCCOCCNC(=O)CCN(Cc1ccc(F)cc1)C(=O)[C@H](CCCCN)NC(=O)CCN(Cc1ccc(F)cc1)C(=O)[C@@H](N)CCCCN)C(=O)N(CCC(N)=O)Cc1ccc(F)cc1 [Compound 18, H-[X]2-sPEG4-[X]2-sPEG4-[X]2-NH2] , please.
A) 42.7
